Reported IC50 against Serine/threonine-protein kinase ATR (Homo sapiens), gathered from multiple publications, appears below.
Unit nM implied. Number only.

Mol	Assay Readout	Reported
C[C@@H]1COCCN1c1cc(N2C3CCC2COC3)nc2[nH]c(-c3ccccn3)nc12	IC50	2250
CS(=O)(=O)Cn1cnc2c(N3CCOCC3)nc(-c3cccc4[nH]ccc34)cc21	IC50	5

(Q) Observed IC50 on Serine/threonine-protein kinase ATR (Homo sapiens) for `COc1ccc(C(=O)N2CCc3c(N4CCOC[C@H]4C)nc(-c4cccc5[nH]ccc45)nc3C2(C)C)cc1` , please.
(A) 9

---

Reported log10 of IC50 against Serine/threonine-protein kinase ATR (Homo sapiens, UniProt Q13535), gathered from multiple publications, appears below.
Sequence (Q13535 whole entry): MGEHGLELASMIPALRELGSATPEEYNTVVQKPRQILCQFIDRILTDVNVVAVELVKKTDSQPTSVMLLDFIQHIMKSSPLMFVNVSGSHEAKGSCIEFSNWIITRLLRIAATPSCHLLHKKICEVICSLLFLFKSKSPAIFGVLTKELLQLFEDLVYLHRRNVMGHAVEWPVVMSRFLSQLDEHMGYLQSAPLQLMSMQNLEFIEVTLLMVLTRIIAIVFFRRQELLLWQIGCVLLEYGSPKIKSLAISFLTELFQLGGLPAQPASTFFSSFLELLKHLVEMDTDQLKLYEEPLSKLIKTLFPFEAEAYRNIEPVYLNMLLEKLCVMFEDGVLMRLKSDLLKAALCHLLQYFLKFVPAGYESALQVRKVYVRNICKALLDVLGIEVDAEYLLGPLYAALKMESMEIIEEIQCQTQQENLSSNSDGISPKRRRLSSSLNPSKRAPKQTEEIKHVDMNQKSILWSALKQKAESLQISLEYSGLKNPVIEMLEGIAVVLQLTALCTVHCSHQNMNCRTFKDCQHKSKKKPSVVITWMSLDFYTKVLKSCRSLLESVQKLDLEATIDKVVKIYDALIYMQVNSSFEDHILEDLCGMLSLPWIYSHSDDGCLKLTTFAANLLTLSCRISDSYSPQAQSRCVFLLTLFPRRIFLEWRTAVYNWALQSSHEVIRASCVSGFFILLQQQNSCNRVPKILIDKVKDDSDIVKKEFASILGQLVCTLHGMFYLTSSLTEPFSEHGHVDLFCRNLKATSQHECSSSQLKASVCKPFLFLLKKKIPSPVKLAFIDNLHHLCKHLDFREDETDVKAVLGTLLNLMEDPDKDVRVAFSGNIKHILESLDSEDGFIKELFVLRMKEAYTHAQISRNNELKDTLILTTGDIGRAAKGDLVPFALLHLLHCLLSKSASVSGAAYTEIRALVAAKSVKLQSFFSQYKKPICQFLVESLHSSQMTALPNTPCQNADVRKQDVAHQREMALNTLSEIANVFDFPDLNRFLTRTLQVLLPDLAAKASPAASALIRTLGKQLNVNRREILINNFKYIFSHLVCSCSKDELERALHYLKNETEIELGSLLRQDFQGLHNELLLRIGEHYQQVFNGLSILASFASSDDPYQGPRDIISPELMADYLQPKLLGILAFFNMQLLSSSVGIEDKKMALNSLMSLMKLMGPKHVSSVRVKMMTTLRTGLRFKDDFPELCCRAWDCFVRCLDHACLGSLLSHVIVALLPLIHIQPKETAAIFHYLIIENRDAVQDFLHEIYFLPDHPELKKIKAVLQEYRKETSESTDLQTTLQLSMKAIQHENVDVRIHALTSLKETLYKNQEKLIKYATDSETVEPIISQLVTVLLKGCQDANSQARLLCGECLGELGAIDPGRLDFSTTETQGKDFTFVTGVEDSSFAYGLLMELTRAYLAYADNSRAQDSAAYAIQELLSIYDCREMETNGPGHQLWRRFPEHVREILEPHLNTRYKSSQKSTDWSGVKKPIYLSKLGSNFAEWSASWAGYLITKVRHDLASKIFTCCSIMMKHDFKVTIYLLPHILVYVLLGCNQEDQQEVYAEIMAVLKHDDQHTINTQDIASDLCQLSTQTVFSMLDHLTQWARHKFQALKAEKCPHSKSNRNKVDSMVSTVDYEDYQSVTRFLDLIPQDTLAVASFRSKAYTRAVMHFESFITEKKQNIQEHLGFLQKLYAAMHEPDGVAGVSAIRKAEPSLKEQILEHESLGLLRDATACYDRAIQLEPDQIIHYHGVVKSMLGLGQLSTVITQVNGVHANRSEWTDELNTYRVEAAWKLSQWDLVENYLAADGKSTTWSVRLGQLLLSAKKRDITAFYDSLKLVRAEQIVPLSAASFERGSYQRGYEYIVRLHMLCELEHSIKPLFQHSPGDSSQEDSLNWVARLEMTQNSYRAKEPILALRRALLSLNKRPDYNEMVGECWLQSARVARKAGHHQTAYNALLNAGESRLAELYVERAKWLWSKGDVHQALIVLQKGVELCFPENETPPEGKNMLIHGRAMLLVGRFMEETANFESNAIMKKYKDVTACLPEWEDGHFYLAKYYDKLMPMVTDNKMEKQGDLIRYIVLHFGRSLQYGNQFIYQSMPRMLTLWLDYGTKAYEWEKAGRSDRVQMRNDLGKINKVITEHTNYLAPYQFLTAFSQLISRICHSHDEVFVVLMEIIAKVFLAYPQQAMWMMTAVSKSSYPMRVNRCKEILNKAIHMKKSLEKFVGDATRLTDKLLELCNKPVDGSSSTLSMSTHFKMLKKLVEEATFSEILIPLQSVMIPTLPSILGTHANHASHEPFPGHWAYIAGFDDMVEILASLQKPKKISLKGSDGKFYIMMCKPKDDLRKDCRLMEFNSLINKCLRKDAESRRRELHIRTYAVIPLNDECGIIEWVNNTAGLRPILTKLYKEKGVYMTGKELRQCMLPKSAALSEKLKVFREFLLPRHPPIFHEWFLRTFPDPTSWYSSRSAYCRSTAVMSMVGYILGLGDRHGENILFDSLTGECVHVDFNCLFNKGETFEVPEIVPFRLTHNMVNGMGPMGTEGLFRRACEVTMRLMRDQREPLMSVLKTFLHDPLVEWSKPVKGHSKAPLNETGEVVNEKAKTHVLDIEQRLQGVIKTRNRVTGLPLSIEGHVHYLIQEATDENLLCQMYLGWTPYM
Please note: log10 values; quantity IC50; unit nM.

Before answering, review these 6 worked examples.
Mol	Test System	log10 of IC50
CC(C)(C#N)c1ccc(N2C(=O)OCc3cnc4ccc(-c5cnc6ccccc6c5)cc4c32)cc1	Serine/threonine-protein kinase ATR (Homo sapiens, UniProt Q13535)	1.15
COc1ccc(C(=O)N2Cc3c(N4CCOC[C@H]4C)nc(-c4cccc5[nH]ccc45)nc3C2(C)C)cc1OC	Serine/threonine-protein kinase ATR (Homo sapiens, UniProt Q13535)	0.85
CO[C@H]1C[C@@H](n2c(=O)n(C)c3cnc4cc(F)c(-c5ccc(CO)nc5)cc4c32)C1	Serine/threonine-protein kinase ATR (Homo sapiens, UniProt Q13535)	4.18
CCC(=O)N1CCc2c(N3CCOC[C@H]3C)nc(-c3cccc4[nH]ccc34)nc2C12CCC2	Serine/threonine-protein kinase ATR (Homo sapiens, UniProt Q13535)	1.36
C[C@@H]1COCCN1c1nc(-c2cnc(N)nc2)cc2c1ncn2CS(C)(=O)=O	Serine/threonine-protein kinase ATR (Homo sapiens, UniProt Q13535)	0.78
C[C@@H]1COCCN1c1nc(-c2cccc3c2CCN3)nc2c(S(C)(=O)=O)csc12	Serine/threonine-protein kinase ATR (Homo sapiens, UniProt Q13535)	1.77

(Q) Observed log10 of IC50 on Serine/threonine-protein kinase ATR (Homo sapiens, UniProt Q13535) for `CC(C)C(=O)N1Cc2c(N3CCOC[C@H]3C)nc(-c3cccc4[nH]ccc34)nc2C1(C)C` , please.
(A) 0.90

(Q) Observed log10 of IC50 on Serine/threonine-protein kinase ATR (Homo sapiens, UniProt Q13535) for `C[C@@H]1COCCN1c1nc(-c2cccc3[nH]ccc23)nc2c1CN(C(=O)C(C)(C)C)C2(C)C` , please.
(A) 1.08

(Q) Observed log10 of IC50 on Serine/threonine-protein kinase ATR (Homo sapiens, UniProt Q13535) for `C[C@@H]1COCCN1c1nc(-c2cccc3[nH]ccc23)nc2c1CCN(C(=O)C1CC1)C2` , please.
(A) 1.15

(Q) Observed log10 of IC50 on Serine/threonine-protein kinase ATR (Homo sapiens, UniProt Q13535) for `CN(C)CCCOc1ccc(-c2ccc3ncc4c(c3n2)n(C2CCOCC2)c(=O)n4C)cn1` , please.
(A) 3.30

(Q) Observed log10 of IC50 on Serine/threonine-protein kinase ATR (Homo sapiens, UniProt Q13535) for `C[C@@H]1COCCN1c1nc(-n2c(N)nc3c(F)cccc32)nc2c(S(C)(=O)=O)csc12` , please.
(A) 0.30

(Q) Observed log10 of IC50 on Serine/threonine-protein kinase ATR (Homo sapiens, UniProt Q13535) for `C[C@@H]1Cn2ncc(C3CCN(S(C)(=O)=O)CC3)c2CN1c1cc(Cl)nc2[nH]ccc12` , please.
(A) -0.40

(Q) Observed log10 of IC50 on Serine/threonine-protein kinase ATR (Homo sapiens, UniProt Q13535) for `O=c1[nH]c2cnc3ccc(-c4cccnc4)cc3c2n1C1CCOCC1` , please.
(A) 1.71
